Here, each record is paired with measured koff data.
- Tested on: T1, human mature dimer BMP9 recombinant protein (manufactured by R&D systems, Cat#3209-BP) (human, UniProt Q9UK05 320-429)
- T1 construct: Bought protein; also called human BMP9; human BMP9 recombinant protein (manufactured by R&D systems)
- T1 sequence: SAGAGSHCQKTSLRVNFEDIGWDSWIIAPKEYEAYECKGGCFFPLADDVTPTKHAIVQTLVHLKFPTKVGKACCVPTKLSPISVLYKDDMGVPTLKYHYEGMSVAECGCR
- Measurement description: SPR (Biacore T100), antibody captured on anti-human IgG, human BMP9 (R&D 3209-BP) as analyte, 5 concentrations from 1 nM
The figure you give is taken to be in s⁻¹; do not add the unit.

Some binders with known koff results, for comparison:
10D5-2-3 antibody-humanized antibody HV3LV0 (antibody, V domains shown, Expressed from pKANTEX93) VH: EVQLVESGGGLVQPGGSLRLSCAASGFTFSNYWMNWVRQAPGKGLEWVAHIRLKSDNYATHYAESVRGRFTISRDDSKNSLYLQMNSLKTEDTAVYYCTGGSNYVFAFWGQGTLVTVSS VL: DIVMTQSPDSLAVSLGERATINCRASESVDNYGISFMNWYQQKPGQPPKLLIYAASNQGSGVPDRFSGSGSGTDFTLTISSLQAEDVAVYYCQQSKEVPWTFGQGTKLEIK ... 0.00172
10D5-2-3 antibody-humanized antibody HV3LV3 (antibody, V domains shown, Expressed from pKANTEX93) VH: EVQLVESGGGLVQPGGSLRLSCAASGFTFSNYWMNWVRQAPGKGLEWVAHIRLKSDNYATHYAESVRGRFTISRDDSKNSLYLQMNSLKTEDTAVYYCTGGSNYVFAFWGQGTLVTVSS VL: DIVMTQSPDSLAVSLGERATINCRASESVDNYGISFMNWFQQKPGQPPKLLIYAASNQGSGVPDRFSGSGSGTDFTLTISPLQAEDVAVYFCQQSKEVPWTFGQGTKLEIK ... 0.000516
10D5-2-3 antibody-humanized antibody HV7aLV0 (antibody, V domains shown, Expressed from pKANTEX93) VH: EVQLVESRGGLVQPGGSMRLSCAASGFTFSNYWMNWVRQAPGKGLEWVAHIRLKSDNYATHYAESVRGRFTISRDDSKSSLYLQMNSLKTEDTGVYYCTGGSNYVFAFWGQGTLVTVSS VL: DIVMTQSPDSLAVSLGERATINCRASESVDNYGISFMNWYQQKPGQPPKLLIYAASNQGSGVPDRFSGSGSGTDFTLTISSLQAEDVAVYYCQQSKEVPWTFGQGTKLEIK ... 0.00142

Please look at the following binder next.
Input: Returns the measured koff for the input binder. Input: 10D5-2-3 antibody-humanized antibody HV9LV4 (antibody, V domains shown, Expressed from pKANTEX93) VH: EVQLVESRGGLVQPGGSMRLSCAASGFTFSNYWMNWVRQAPGKGLEWVAHIRLKSDNYATHYAESVRGRFTISRDDSKSSVYLQMNSLKTEDTGIYYCTGGSNYVFAFWGQGTLVTVSS VL: DIVLTQSPDSLAVSLGERATINCRASESVDNYGISFMNWYQQKPGQPPKLLIYAASNQGSGVPDRFSGSGSGTDFTLTISPMQAEDVAMYYCQQSKEVPWTFGQGTKLEIK
Output: 0.000739
